biological target: Feline_OSMR_hlgG1_Fc (feline); assay: SPR Biacore
Sequence (chain, as listed by the source limits assumed, form in doubt): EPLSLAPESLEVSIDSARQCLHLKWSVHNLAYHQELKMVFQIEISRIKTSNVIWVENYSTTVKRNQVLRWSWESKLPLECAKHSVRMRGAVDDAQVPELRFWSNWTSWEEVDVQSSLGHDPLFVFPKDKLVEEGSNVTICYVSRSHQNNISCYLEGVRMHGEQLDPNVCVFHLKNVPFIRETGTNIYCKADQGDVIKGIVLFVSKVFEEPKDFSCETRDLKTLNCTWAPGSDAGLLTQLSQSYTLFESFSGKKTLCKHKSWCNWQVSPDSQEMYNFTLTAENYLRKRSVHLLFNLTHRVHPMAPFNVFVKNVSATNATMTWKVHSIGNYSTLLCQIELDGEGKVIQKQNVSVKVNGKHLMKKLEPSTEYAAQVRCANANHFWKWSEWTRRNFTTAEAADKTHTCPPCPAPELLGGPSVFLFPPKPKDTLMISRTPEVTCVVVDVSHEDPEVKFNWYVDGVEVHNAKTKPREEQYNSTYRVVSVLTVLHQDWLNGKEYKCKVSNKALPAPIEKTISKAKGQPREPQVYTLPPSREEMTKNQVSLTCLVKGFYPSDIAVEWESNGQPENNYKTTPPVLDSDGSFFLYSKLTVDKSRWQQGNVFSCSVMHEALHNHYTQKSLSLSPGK
Value type: koff (s⁻¹)
Supply the numeric figure in s⁻¹, leaving out any unit text.

I am curious: what koff value has been reported for Mu_10F07_VH (SEQ ID NO: 39)_Y107A (antibody, V domains shown) VH: DVKLVESGEGLVKPGGSLKLSCAASGFTFSSYAMSWVRQTPEKRLEWVTYISSGGDYFYYADTVKGRFTISRDNARNTLYLQMSSLKSEDTAMYYCTRDPITGTFAAWGQGTLVTVSA VL: DIQMTQTTSSLSASLGDRVTISCRASQDITNYLNWYQQKPDGTVKLLIYYTSTLHSGVPSRFSGSGSGTDFSLTISNLEQEDIATYFCQQGHMLPWTFGGGTKLEIKR ? 0.000247

I am curious: what koff value has been reported for Mu_02D09_VH (SEQ ID NO: 31)_S52A (antibody, V domains shown) VH: EVQLVESGGGLVKPGGSLTLSCAASGFTFSDYGMHWLRQAPEKGLEWVAYIASGSRAVFFADTVKGRFTISRDNAKNTLFLQMTSLRSDDTAMYYCARDRYDGRGFAYWGQGTLVTVSA VL: DIVLTQSPATLSVTPGDSVSLSCRASQSISNNLHWYQQTSHESPRLLITYASQSISGIPSRFSGSGSGTDFTLSINSVETEDFGMYFCQQSNSWPLTFGAGTKLELKR ? 0.000483

I am curious: what koff value has been reported for Mu_09E09_VH (SEQ ID NO: 35)_F105A (antibody, V domains shown) VH: DVKLVESGEGLVKPGGSLKLSCAASGFTFSSYAMSWVRQTPEKRLEWVAYISSGGDYIYYADTVKGRFTISRDNARNTLYLQMSSLKSEDTAMYYCTRDPITGTAAYWGQGTLVTVSA VL: DLQMTQTTSSLSASLGDRVTISCRASQDINNYLNWYQQKPDGTVKLLIYYTSTLHSGVPSRFSGSGSGTDYSLTISNLEQEDIATYFCQQGNTLPWTFGGGTKLEIKR ? 0.00186

I am curious: what koff value has been reported for Mu_09E09_VH (SEQ ID NO: 35)_P100A (antibody, V domains shown) VH: DVKLVESGEGLVKPGGSLKLSCAASGFTFSSYAMSWVRQTPEKRLEWVAYISSGGDYIYYADTVKGRFTISRDNARNTLYLQMSSLKSEDTAMYYCTRDAITGTFAYWGQGTLVTVSA VL: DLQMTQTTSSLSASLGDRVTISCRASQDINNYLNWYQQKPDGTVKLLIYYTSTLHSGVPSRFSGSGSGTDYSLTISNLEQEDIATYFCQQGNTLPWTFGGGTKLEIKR ? 0.000926
